Biological target: Cholinesterase (Homo sapiens)
Sequence (P06276 whole entry): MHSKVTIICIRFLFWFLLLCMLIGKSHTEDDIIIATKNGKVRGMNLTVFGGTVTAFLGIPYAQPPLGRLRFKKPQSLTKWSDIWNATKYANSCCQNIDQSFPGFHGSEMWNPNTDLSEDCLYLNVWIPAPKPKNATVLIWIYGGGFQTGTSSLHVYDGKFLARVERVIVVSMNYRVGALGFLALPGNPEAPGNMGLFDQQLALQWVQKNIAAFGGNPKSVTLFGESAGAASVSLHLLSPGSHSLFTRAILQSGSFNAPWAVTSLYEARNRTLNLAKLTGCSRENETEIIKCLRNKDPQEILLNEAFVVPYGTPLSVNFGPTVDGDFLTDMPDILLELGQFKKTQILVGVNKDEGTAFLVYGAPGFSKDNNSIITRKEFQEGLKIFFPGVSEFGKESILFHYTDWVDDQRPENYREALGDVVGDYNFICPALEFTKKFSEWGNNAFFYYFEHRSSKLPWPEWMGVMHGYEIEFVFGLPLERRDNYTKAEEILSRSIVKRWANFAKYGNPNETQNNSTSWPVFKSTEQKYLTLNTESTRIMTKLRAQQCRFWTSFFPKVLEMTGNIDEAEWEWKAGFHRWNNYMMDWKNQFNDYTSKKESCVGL
Assay: In vitro inhibition of human serum Butyrylcholinesterase using butyrylthiocholine as substrate; 0.01-0.069
pIC50: −log10 of the molar value.
value type: pIC50

> print(dat)
                      smiles.representation  quantitative.readout
1  CCCN(c1ccncc1F)n1cc(C)c2cc(OC(=O)NCc3ccccc3)ccc21                  7.57

====

Biological target: Cholinesterase (Homo sapiens)
Assay: In vitro inhibition of human serum Butyrylcholinesterase using butyrylthiocholine as substrate; 0.69-1.2
value type: IC50 (µM)

> print(dat)
                      smiles.representation  unit  quantitative.readout
1  CCCCNC(=O)Oc1ccc2c(c1)c(C)cn2N(CCC)c1ccncc1F    µM                  0.92

====

Target: Acetylcholinesterase (Rattus norvegicus)
Assay: Tested for percent ex vivo inhibition of rat striatal acetylcholinesterase at peroral dose of 20 mg/kg at 4 hr
Format: organism-based
Design: dose 20 mg/kg
value type: inhibition (%)

> print(dat)
                      smiles.representation                             target.entity  unit  quantitative.readout
1  CCCN(c1ccncc1F)n1cc(C)c2cc(OC(=O)NCc3ccccc3)ccc21  Acetylcholinesterase (Rattus norvegicus)     %                    12
2      CNC(=O)Oc1ccc2c(c1)c(C)cn2Nc1ccncc1F  Acetylcholinesterase (Rattus norvegicus)     %                    84
3  CCCCNC(=O)Oc1ccc2c(c1)c(C)cn2N(CCC)c1ccncc1F  Acetylcholinesterase (Rattus norvegicus)     %                    26
4  CCCN(c1ccncc1F)n1cc(C)c2cc(OC(=O)NC)ccc21  Acetylcholinesterase (Rattus norvegicus)     %                    41

====

Target: Cholinesterase (Homo sapiens)
Assay: In vitro inhibition of human serum Butyrylcholinesterase using butyrylthiocholine as substrate; 0.023-0.041
pIC50: −log10 of the molar value.
value type: pIC50

> print(dat)
                      smiles.representation  quantitative.readout
1  CCCN(c1ccncc1F)n1cc(C)c2cc(OC(=O)NC)ccc21                  7.51

====

Target: Acetylcholinesterase (Rattus norvegicus)
Experiment: Compound was evaluated in vitro in rats for the inhibition of brain (striatal) acetylcholinesterase (AChEI) using acetylthiocholine as substrate; 0.014-0.14
value type: IC50 (nM)

> print(dat)
                      smiles.representation  quantitative.readout
1  CCCN(c1ccncc1F)n1cc(C)c2cc(OC(=O)NCc3ccccc3)ccc21                    43

====

Molecular target: Acetylcholinesterase (Rattus norvegicus)
Assay: Compound was evaluated in vitro in rats for the inhibition of brain (striatal) acetylcholinesterase (AChEI) using acetylthiocholine as substrate; 0.024-0.14
value type: IC50 (nM)

> print(dat)
                      smiles.representation  quantitative.readout
1  CCCN(c1ccncc1F)n1cc(C)c2cc(OC(=O)NC)ccc21                    58

====

Biological target: Acetylcholinesterase (Rattus norvegicus, UniProt P37136)
Sequence (P37136 whole entry): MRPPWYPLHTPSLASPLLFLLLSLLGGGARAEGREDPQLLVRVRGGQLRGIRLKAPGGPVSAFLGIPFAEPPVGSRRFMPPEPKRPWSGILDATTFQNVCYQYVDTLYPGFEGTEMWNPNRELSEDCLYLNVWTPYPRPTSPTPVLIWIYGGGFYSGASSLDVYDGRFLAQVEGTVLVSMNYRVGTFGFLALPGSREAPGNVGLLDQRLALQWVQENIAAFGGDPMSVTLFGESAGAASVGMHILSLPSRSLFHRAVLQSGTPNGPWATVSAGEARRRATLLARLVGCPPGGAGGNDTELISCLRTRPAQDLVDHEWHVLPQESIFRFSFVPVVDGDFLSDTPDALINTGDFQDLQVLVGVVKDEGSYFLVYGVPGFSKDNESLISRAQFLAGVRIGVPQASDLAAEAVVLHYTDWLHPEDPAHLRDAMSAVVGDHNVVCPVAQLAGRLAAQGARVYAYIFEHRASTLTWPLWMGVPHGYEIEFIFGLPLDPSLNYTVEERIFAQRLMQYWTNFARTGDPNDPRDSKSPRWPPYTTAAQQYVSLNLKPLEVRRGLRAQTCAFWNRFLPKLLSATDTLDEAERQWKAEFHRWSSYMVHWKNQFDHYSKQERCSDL
Assay: Compound was evaluated in vitro in rats for the inhibition of brain (striatal) acetylcholinesterase (AChEI) using acetylthiocholine as substrate; 3.3-4.8
value type: IC50

> print(dat)
                      smiles.representation  value.type  result
1  CCCCNC(=O)Oc1ccc2c(c1)c(C)cn2N(CCC)c1ccncc1F        IC50    4 µM

These measurements were taken from ChEMBL document CHEMBL1130558.
